# TARGET: protein farnesyltransferase (FTase), wild type (UniProt Q04631 1-377; Q02293 1-437)
# PROTOCOL DETAILS: fluorescence polarisation
Where no end group is shown, it is not given here. The star is where a group is joined. Dansyl = CN(C)c1cccc2c(S(=O)(=O)*)cccc12
MEASURED ENDPOINT: Kd (nM)
Report only the number, with the unit nM understood.

Requested read-out: Kd. Entry: Dansyl-TKCNIM [dansyl-TKCNIM] 5

Requested read-out: Kd. Entry: Dansyl-TKCITQ [dansyl-TKCITQ] 3.6

Requested read-out: Kd. Entry: Dansyl-TKCSLC (cysteine pairing not given here) [dansyl-TKCSLC] 5

Requested read-out: Kd. Entry: Dansyl-TKCSLM [dansyl-TKCSLM] 8

Requested read-out: Kd. Entry: Dansyl-TKCLVM [dansyl-TKCLVM] 6

Requested read-out: Kd. Entry: Dansyl-TKCYVM [dansyl-TKCYVM] 12

Requested read-out: Kd. Entry: Dansyl-TKCSIM [dansyl-TKCSIM] 6

Requested read-out: Kd. Entry: Dansyl-TKCVVT [dansyl-TKCVVT] 7

Requested read-out: Kd. Entry: Dansyl-TKCLTS [dansyl-TKCLTS] 5

Requested read-out: Kd. Entry: Dansyl-TKCSIS [dansyl-TKCSIS] 3.4

Requested read-out: Kd. Entry: Dansyl-TKCRIS [dansyl-TKCRIS] 12

Requested read-out: Kd. Entry: Dansyl-TKCTLQ [dansyl-TKCTLQ] 7

Requested read-out: Kd. Entry: Dansyl-TKCIVA [dansyl-TKCIVA] 5

Requested read-out: Kd. Entry: Dansyl-TKCTMS [dansyl-TKCTMS] 6

Requested read-out: Kd. Entry: Dansyl-TKCNLQ [dansyl-TKCNLQ] 8
